Method Summary: in vitro
Test Parameters: human, Huh7/C24 cells
Description: Cytotoxicity against human Huh7/C24 cells after 72 hrs by bDNA assay
Quick reference: CC50 at 72 h of the listed items.

Would you please look over these solved cases?
CS(=O)(=O)Nc1ccc2c(c1)S(=O)(=O)N=C(C1=C(O)C3(CC3)CN(Cc3ccc(F)cc3)C1=O)N2 = > 1 µM
CS(=O)(=O)Nc1ccc2c(c1)S(=O)(=O)N=C(C1=C(O)[C@@H](Cc3ccc(F)cc3)CN(Cc3ccc(F)cc3)C1=O)N2 = > 33 µM
CC(C)CC[C@]1(C)CN(C2CC2)C(=O)C(C2=NS(=O)(=O)c3cc(NS(C)(=O)=O)ccc3N2)=C1O = > 33 µM
C[C@@]1(Cc2ccc(F)cc2)CN(C2CCCC2)C(=O)C(C2=NS(=O)(=O)c3cc(NS(C)(=O)=O)ccc3N2)=C1O = > 33 µM
CS(=O)(=O)Nc1ccc2c(c1)S(=O)(=O)N=C(C1=C(O)CC3(CCCC3)N(Cc3ccc(F)cc3)C1=O)N2 = > 33 µM
C[C@@]1(CCC2CC2)CN(C2CCCC2)C(=O)C(C2=NS(=O)(=O)c3cc(NS(C)(=O)=O)ccc3N2)=C1O = > 10 µM

Here is another compound to look at.
Sure, the documented CC50 at 72 h for "CC(C)CC[C@]1(C)CN(C2CCCC2)C(=O)C(C2=NS(=O)(=O)c3cc(NS(C)(=O)=O)ccc3N2)=C1O" is > 33 µM
